Documented self-cleavage kobs at 10000 uM GlcN6P across a set of variants
B1: glmS ribozyme (parent)
chain: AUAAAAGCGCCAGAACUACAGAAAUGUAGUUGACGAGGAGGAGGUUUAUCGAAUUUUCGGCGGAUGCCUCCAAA

variants of: B1; assay: self-cleavage kobs at 10000 uM GlcN6P; higher = faster cleavage; RNA array; conditions: with glucosamine-6-phosphate
This sample holds only a part of the variants without activity.

- Changes: "C8U C50G C58G C71U"
  self-cleavage kobs at 10000 uM GlcN6P: "0.000113 s⁻¹"

Prompt: Please report the recorded self-cleavage kobs at 10000 uM GlcN6P for A6G G9U C58A .
Response: < 1e-05 s⁻¹

Prompt: Moving on to G9A A48G
Response: < 1e-05 s⁻¹

Prompt: Moving on to U54A C67U
Response: 0.00584 s⁻¹

Prompt: Moving on to G51A A52U G59A
Response: < 1e-05 s⁻¹

Prompt: Moving on to A15C A33U U47C U57G C68U U69C
Response: < 1e-05 s⁻¹

Prompt: Moving on to G29A G35C A39G G41U G43C G62A A64U
Response: < 1e-05 s⁻¹

Prompt: Moving on to `A64U`
Response: 0.000141 s⁻¹

Prompt: Moving on to A14U C34A A48G C68G C71A
Response: 0.000226 s⁻¹

Prompt: Moving on to G35U C70U
Response: < 1e-05 s⁻¹

Prompt: Moving on to C16A G29A
Response: 0.00227 s⁻¹
